# Target: c-kit (Homo sapiens, UniProt P10721)
# Construct: MO7e (human megakaryocytic leukemia cell line) which had been arrested for 20 hr; endogenous in cells; host or cells: MO7e human megakaryocytic leukemia cell line
# Sequence (P10721 26-976): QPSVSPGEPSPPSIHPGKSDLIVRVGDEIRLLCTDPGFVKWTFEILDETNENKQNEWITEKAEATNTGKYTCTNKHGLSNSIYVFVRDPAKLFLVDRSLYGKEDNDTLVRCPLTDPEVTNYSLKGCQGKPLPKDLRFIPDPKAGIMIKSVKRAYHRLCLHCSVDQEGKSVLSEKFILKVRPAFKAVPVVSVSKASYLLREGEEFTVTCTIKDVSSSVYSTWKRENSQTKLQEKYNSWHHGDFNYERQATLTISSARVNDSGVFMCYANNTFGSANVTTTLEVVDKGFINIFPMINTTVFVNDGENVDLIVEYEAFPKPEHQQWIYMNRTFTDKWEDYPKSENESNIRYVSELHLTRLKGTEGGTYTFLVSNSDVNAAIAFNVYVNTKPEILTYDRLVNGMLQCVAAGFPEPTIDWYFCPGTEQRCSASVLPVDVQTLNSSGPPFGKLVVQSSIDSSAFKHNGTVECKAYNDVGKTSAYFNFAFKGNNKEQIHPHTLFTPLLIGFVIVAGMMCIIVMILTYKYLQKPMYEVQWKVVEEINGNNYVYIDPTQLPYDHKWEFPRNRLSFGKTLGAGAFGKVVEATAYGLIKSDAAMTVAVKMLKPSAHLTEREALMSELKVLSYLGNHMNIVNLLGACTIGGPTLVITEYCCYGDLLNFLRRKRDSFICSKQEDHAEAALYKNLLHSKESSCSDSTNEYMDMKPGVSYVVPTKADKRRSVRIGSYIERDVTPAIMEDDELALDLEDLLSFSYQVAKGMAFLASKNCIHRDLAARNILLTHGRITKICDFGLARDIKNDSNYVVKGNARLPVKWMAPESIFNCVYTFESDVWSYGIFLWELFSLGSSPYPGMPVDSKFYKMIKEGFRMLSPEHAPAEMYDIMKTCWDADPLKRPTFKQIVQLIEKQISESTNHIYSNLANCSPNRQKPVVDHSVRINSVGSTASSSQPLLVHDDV
# Method Description: Inhibitory activity against c-kit autophosphorylation (MO7e cells, h-SCF)
# Assay type: cell-based
# Condition Info: MO7e cells, h-SCF stimulation; read-out: c-kit IC50
pIC50: −log10 of the molar value.
Value Kind: pIC50

COc1cc2nccc(Oc3ccc(NCCOc4cc(C)cc(C)c4)cc3)c2cc1OC
6.99
COc1cc2nccc(Oc3ccc(NC(=S)NC(=O)c4ccccc4)cc3F)c2cc1OC
6.30
COc1cc2nccc(Oc3ccc(NCCOc4ccccc4Cl)cc3C)c2cc1OC
6.66
COc1cc2ncnc(Oc3ccc(NCCOc4ccccc4C)cc3)c2cc1OC
6.03
COc1cc2nccc(Oc3ccc(NC(=S)NC(=O)C4CCCC4)c(F)c3)c2cc1OC
6.31
COc1cc2nccc(Oc3ccc(NC(=S)NC(=O)c4ccsc4)cc3)c2cc1OC
6.42
COc1cc2nccc(Oc3ccc(NC(=S)NC(=O)c4ccccc4C(F)(F)F)cc3Cl)c2cc1OC
6.36
CCc1ccc(OCCNc2ccc(Oc3ccnc4cc(OC)c(OC)cc34)cc2)cc1
7.49

I. COc1cc2nccc(Oc3ccc(NC(=S)NC(=O)c4cccc(Br)c4)cc3Cl)c2cc1OC
II. COc1cc2nccc(Oc3ccc(NC(=S)NC(=O)Cc4ccccc4)c(F)c3)c2cc1OC
III. COc1cc2nccc(Oc3ccc(NC(=S)NC(=O)C4(C)CCCCC4)cc3Cl)c2cc1OC
IV. COc1ccc(OCCNc2ccc(Oc3ccnc4cc(OC)c(OC)cc34)cc2)cc1
V. COc1cc2nccc(Oc3ccc(NCCOc4ccccc4)cc3)c2cc1OC
Your job: order these 5 records by pIC50, ascending. To answer, write out the labels according to the requested order.
III, I, II, V, IV
(III: 6.17, I: 6.50, II: 6.85, V: 7.10, IV: 7.51)

I. COc1cc2nccc(Oc3ccc(NCCOc4ccccc4)cc3C)c2cc1OC
II. COc1cc2nccc(Oc3ccc(NC(=S)NC(=O)c4ccccc4Br)cc3Cl)c2cc1OC
Between I and II , which one shows the larger pIC50 value? Pick one and reply with its label.
I
(I: 6.94, II: 6.44)

---

# Target: c-kit (Homo sapiens, UniProt P10721)
# Construct: MO7e (human megakaryocytic leukemia cell line) which had been arrested for 20 hr; endogenous in cells; host or cells: MO7e human megakaryocytic leukemia cell line
# Method Description: Inhibitory activity against c-kit autophosphorylation (MO7e cells, h-SCF)
# Assay type: cell-based
# Condition Info: MO7e cells, h-SCF 50 ng/ml; read-out: c-kit IC50
Value Kind: IC50 (nM)

Worked set:
COc1ccc(C(C)OC(=O)Nc2cc(C)c(Oc3ccnc4cc(OC)c(OC)cc34)cc2C)cc1 (stereo not shown)
800
CCCCC(CC)OC(=O)Nc1cc(C)c(Oc2ccnc3cc(OC)c(OC)cc23)cc1C (stereo not shown)
467
CCCCC(CC)OC(=O)Nc1ccc(Oc2ccnc3cc(OC)c(OC)cc23)cc1 (stereo not shown)
253
CCCCCCOC(=O)Nc1ccc(Oc2ccnc3cc(OC)c(OC)cc23)c(C)c1C
44

a. COc1cc2nccc(Oc3ccc(NC(=O)OC(C)c4ccccc4F)c(C)c3C)c2cc1OC (stereo not shown)
b. CCCC(OC(=O)Nc1ccc(Oc2ncnc3cc(OC)c(OC)cc23)cc1)c1ccccc1 (stereo not shown)
c. COc1cc2nccc(Oc3ccc(NC(=O)OCCOc4cccc(F)c4)c(C)c3C)c2cc1OC
d. COc1cc2nccc(Oc3cc(C)c(NC(=O)OC4CCCCC4)cc3C)c2cc1OC
e. COc1cc2nccc(Oc3cc(C)c(NC(=O)OCc4ccc(C)cc4)cc3C)c2cc1OC
Ascending by IC50, please: list the compounds accordingly. The response must list the labels following the requested ordering.
c, d, a, e, b
(c: 53 nM, d: 109 nM, a: 207 nM, e: 309 nM, b: 561 nM)

A. COc1ccccc1COC(=O)Nc1ccc(Oc2ccnc3cc(OC)c(OC)cc23)cc1
B. COc1cc2nccc(Oc3ccc(NC(=O)OCc4ccc(C(C)(C)C)cc4)cc3)c2cc1OC
Decide: A or B , by lowest recorded IC50. Let me know the label of the one you choose.
A
(A: 147 nM, B: 393 nM)

I. COc1cc2nccc(Oc3ccc(NC(=O)OCCCSc4ccc(C(C)(C)C)cc4)c(C)c3C)c2cc1OC
II. COc1cc2nccc(Oc3ccc(NC(=O)OCC4CCCC4)c(C)c3C)c2cc1OC
Consider I and II . Which of these has its IC50 at a higher number? Write down the label attached to your selection.
I
(I: 235 nM, II: 86 nM)

Where these numbers come from: patent US7135466B2
